assayTarget: rSARS2 RBD aa319-541, N439K, C-His (SARS-CoV-2, UniProt P0DTC2 319-541)
methodNotes: flow cytometry, blocking of binding to hACE-2 cells
parameterMeasured: percent blocking
Quote the value and follow it with the unit of measurement.

Worked cases, percent blocking given:
binder	percent blocking
1035762 (antibody, V domains shown) VH: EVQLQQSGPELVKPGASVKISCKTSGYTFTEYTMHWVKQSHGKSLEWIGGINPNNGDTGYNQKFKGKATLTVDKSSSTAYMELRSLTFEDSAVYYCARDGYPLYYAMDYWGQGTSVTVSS VL: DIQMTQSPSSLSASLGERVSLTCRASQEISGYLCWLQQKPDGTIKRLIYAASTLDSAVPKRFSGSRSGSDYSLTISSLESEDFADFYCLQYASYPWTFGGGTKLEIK	42.7%
1035240 (antibody, V domains shown) VH: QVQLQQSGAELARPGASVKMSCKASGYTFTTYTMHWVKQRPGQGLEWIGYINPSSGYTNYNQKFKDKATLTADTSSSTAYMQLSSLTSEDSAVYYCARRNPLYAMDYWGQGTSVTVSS VL: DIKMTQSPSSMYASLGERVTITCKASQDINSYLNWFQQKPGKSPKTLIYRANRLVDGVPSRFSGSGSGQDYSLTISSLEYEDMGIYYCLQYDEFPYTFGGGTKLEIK	49%
1035224 (antibody, V domains shown) VH: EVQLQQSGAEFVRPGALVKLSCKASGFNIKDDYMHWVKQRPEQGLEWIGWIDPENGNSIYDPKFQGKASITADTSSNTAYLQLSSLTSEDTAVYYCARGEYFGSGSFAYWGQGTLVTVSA VL: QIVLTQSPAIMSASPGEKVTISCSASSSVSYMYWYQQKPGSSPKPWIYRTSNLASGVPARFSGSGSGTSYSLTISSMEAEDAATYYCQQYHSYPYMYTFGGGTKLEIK	96.1%
1035740 (antibody, V domains shown) VH: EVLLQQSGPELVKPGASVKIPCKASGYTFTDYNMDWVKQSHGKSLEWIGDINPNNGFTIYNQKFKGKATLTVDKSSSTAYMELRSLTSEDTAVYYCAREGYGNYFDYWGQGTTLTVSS VL: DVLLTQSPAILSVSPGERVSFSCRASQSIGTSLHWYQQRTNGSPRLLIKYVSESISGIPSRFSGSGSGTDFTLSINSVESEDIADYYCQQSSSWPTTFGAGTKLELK	96%

// next item, percent blocking requested
Lookup result for 1035716 (antibody, V domains shown) VH: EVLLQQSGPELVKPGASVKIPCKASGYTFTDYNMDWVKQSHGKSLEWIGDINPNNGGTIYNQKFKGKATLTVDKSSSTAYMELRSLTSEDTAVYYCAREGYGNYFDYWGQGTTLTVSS VL: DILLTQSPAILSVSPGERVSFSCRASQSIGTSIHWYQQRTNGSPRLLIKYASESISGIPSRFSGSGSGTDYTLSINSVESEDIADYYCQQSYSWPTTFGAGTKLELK ; measured percent blocking: 96.2%
